# System: Swiss 3T3 mouse fibroblasts
# protocol_details: Growth inhibition assay, Swiss 3T3 fibroblasts
# Assay type: cell-based
# run_conditions: Swiss 3T3, 72 hours, Table 2, read-out: IC50 growth inhibition
outcome_measure: IC50 (µM)
A number alone suffices; assume µM.

Example results:
COC(=O)CCc1c(SSc2c(CCC(=O)OC)c3ccccc3n2C)n(C)c2ccccc12 [Compound 40] = 5.2
COC(=O)CCc1c(SSc2[nH]c3ccccc3c2CCC(=O)OC)[nH]c2ccccc12 [Compound 39] = 7.4
CCOC(=O)CCc1c(SSc2[nH]c3ccccc3c2CCC(=O)OCC)[nH]c2ccccc12 [Compound 38] = 1.6
O=C(Cc1c(SSc2[nH]c3ccccc3c2CC(=O)NCc2ccccc2)[nH]c2ccccc12)NCc1ccccc1 [Compound 34] = 2.7

Task item: Complete the entry with IC50 for CN1C(=S)C(C(=O)Nc2ccccc2)c2ccccc21 (centres unmarked) [Compound 21]
Reply: 64

Task item: Complete the entry with IC50 for O=C(O)Cc1c(SSSc2[nH]c3ccccc3c2CC(=O)O)[nH]c2ccccc12 [Compound 30, bis[indolyl-3-acetic acid-(2)]trisulfide]
Reply: 8

Task item: Complete the entry with IC50 for Cn1c(SSc2c(C(=O)Nc3ccccc3)c3ccccc3n2C)c(C(=O)Nc2ccccc2)c2ccccc21 [Compound 70]
Reply: 12

====

# study_system: human PDGF β receptor intracellular tyrosine kinase domain (Homo sapiens, UniProt P09619)
# Construct: human PDGF β receptor intracellular tyrosine kinase domain; made in house; host or cells: SF9 insect cells, recombinant baculovirus; cell lysates used
# Sequence (P09619 554-1106 limits assumed): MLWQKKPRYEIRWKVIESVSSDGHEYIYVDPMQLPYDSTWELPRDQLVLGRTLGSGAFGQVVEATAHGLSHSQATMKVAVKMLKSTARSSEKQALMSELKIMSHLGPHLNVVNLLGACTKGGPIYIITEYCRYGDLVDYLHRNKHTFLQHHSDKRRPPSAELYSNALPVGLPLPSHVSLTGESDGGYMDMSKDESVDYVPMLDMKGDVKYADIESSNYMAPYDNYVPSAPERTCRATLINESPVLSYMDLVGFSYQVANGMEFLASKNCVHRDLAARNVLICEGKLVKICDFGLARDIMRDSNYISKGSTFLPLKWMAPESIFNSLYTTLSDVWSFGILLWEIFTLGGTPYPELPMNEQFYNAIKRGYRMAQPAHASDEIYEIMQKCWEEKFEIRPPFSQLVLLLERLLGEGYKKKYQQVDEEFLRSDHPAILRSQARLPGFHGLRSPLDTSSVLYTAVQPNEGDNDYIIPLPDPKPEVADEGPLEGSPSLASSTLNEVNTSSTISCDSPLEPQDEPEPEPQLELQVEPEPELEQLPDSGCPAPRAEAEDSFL
# protocol_details: PDGF receptor tyrosine kinase inhibition assay (P^32 incorporation in Glu-Tyr)
# Format: biochemical
# run_conditions: Table 2, PDGF-R; IC50 entries; read-out: IC50 (PDGFR TK)
outcome_measure: IC50 (µM)
A number alone suffices; assume µM.

Example results:
CN(C)CCNC(=O)c1c(SSc2c(C(=O)NCCN(C)C)c3ccccc3n2C)n(C)c2ccccc12 = 19.7
CC(=O)Oc1cccc2c1c(C(=O)Nc1ccccc1)c(SSc1c(C(=O)Nc3ccccc3)c3c(OC(C)=O)cccc3n1C)n2C = 36.5
Cn1c(SSc2c(C(=O)Nc3cccnc3)c3ccccc3n2C)c(C(=O)Nc2cccnc2)c2ccccc21 = 4.2

Task item: Complete the entry with IC50 for CNC(=O)c1c(SSc2c(C(=O)NC)c3ccccc3n2C)n(C)c2ccccc12
Reply: 28.1

Task item: Complete the entry with IC50 for Cn1c(SSc2c(C(=O)Nc3ccncc3)c3ccccc3n2C)c(C(=O)Nc2ccncc2)c2ccccc21
Reply: 7.9

Task item: Complete the entry with IC50 for Cn1c(SSc2c(C(=O)NCC(O)CO)c3ccccc3n2C)c(C(=O)NCC(O)CO)c2ccccc21 (stereo not drawn)
Reply: 7

====

# Test system: MDA-231 breast
# protocol_details: Growth inhibition assay, MDA-231
# Format: cell-based
# run_conditions: Homo sapiens, MDA-MB-231, read-out: IC50 cell growth inhibition
outcome_measure: pIC50
When answering, recall that pIC50 equals minus log10 of the concentration in mol/L, and write that number alone.

Task item: Complete the entry with pIC50 for CN1C(=S)C(C(=O)Nc2ccccc2)c2ccccc21 (stereo not shown)
Reply: 4.82

====

# study_system: epidermal growth factor receptor tyrosine kinase (Homo sapiens)
# Construct: A native 170,000 epidermal growth factor receptor-kinase complex from shed plasma membrane vesicles; endogenous in cells
# Sequence (P00533 25-1210): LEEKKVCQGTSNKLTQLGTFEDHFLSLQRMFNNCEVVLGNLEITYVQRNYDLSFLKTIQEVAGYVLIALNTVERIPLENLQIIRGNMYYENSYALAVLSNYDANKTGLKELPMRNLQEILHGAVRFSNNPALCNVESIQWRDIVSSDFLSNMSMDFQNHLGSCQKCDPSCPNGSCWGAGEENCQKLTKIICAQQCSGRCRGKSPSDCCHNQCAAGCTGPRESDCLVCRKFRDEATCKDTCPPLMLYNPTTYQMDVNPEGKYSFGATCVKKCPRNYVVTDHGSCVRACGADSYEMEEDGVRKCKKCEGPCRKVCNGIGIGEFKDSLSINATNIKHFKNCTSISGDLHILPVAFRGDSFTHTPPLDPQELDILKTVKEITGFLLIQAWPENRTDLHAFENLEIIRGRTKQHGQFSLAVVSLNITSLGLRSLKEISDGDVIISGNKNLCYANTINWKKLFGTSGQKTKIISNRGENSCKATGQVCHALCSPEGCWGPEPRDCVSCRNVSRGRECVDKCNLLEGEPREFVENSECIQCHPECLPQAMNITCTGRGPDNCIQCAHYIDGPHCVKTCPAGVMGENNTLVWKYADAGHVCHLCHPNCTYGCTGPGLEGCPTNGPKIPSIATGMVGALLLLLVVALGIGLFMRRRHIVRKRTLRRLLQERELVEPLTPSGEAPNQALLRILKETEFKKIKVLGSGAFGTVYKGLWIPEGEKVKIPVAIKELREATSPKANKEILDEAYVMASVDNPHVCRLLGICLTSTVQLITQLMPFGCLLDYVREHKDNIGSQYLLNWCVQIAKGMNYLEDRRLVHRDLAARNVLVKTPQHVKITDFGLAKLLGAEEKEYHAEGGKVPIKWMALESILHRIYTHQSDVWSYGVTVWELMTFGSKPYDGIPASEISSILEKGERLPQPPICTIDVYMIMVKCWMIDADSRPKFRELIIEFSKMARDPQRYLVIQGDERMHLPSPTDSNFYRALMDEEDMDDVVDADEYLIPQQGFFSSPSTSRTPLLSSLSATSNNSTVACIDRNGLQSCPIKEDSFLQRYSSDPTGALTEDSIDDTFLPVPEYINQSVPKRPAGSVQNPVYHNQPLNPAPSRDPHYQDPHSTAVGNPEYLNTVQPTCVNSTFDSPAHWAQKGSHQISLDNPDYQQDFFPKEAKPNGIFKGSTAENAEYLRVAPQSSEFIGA
# Sequence (P01133 971-1023 partner limits assumed): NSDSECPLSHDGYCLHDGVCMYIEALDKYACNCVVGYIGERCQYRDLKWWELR
# protocol_details: EGF receptor tyrosine kinase assay (P^32 incorporation in GAT)
# Format: biochemical
# run_conditions: read-out: IC50 (EGFR TK)
Here the recorded pIC50 is given for each entry.
When answering, recall that pIC50 equals minus log10 of the concentration in mol/L, and write that number alone.

Example results:
CNC(=O)c1c([Se][Se]c2[nH]c3ccccc3c2C(=O)NC)[nH]c2ccccc12 = 4.89
CCN(CC)CCNC(=O)c1c([Se][Se]c2c(C(=O)NCCN(CC)CC)c3ccccc3n2C)n(C)c2ccccc12 = 5.33
CCN(CC)CCn1c([Se][Se]c2c(C(=O)NC)c3ccccc3n2CCN(CC)CC)c(C(=O)NC)c2ccccc21 = 5.16

Let us examine a further case.
Task item: Complete the entry with pIC50 for Cn1c([Se][Se]c2c(C(=O)O)c3ccccc3n2C)c(C(=O)O)c2ccccc21
Reply: 5.46
